- System: PC-3
- method-summary: Potency index, ratio of IC50 for curcumin to IC50 for compound against human PC3 cells assessed as inhibition of cell proliferation after 3 days by WST1 assay
- Assay type: functional
The label depends only on Ratio IC50: TRUE if it is at least 50, FALSE if it is smaller.

[[record]]
compound = "CCCC(C)n1c(/C=C/C(=O)/C=C/c2nc3ccccc3n2C(C)CCC)nc2ccccc21 (stereo not given)"
label_class = "TRUE"

[[record]]
compound = "CCCCCCn1c(/C=C/C(=O)/C=C/c2nc3ccccc3n2CCCCCC)nc2ccccc21"
label_class = "FALSE"

[[record]]
compound = "CCC(CC)n1c(/C=C/C(=O)/C=C/c2nc3ccccc3n2C(CC)CC)nc2ccccc21"
label_class = "TRUE"

[[record]]
compound = "CCCCCn1ccnc1/C=C/C(=O)/C=C/c1nccn1CCCCC"
label_class = "FALSE"

[[record]]
compound = "CCCCCCn1ccnc1/C=C/C(=O)/C=C/c1nccn1CCCCCC"
label_class = "FALSE"

[[record]]
compound = "CC(C)Cn1c(/C=C/C(=O)/C=C/c2nc3ccccc3n2CC(C)C)nc2ccccc21"
label_class = "TRUE"

[[record]]
compound = "O=C(/C=C/c1ccnc2ccccc12)/C=C/c1ccnc2ccccc12"
label_class = "TRUE"

[[record]]
compound = "Cc1csc(/C=C/C(=O)/C=C/c2nc(C)cs2)n1"
label_class = "FALSE"

[[record]]
compound = "Cc1cccc(/C=C/C(=O)/C=C/c2cccc(C)n2)n1"
label_class = "TRUE"


---

- Test system: DU-145
- method-summary: Cytotoxicity against human DU145 cells assessed as inhibition of cell viability at 10 uM after 3 days by trypan blue dye exclusion assay
- Assay type: functional
- condition-notes: DU-145, 72 h
endpoint-label: inhibition at 10 µM (%)

[[record]]
compound = "Cc1nc(C(F)(F)F)c(/C=C/C(=O)/C=C/c2sc(C)nc2C(F)(F)F)s1"
val = 90.3

[[record]]
compound = "CCCC(C)n1c(/C=C/C(=O)/C=C/c2nc3ccccc3n2C(C)CCC)nc2ccccc21 (stereo unspecified)"
val = 88.5

[[record]]
compound = "O=C(/C=C/c1ccnc2ccccc12)/C=C/c1ccnc2ccccc12"
val = 48.4

[[record]]
compound = "CC(C)n1c(/C=C/C(=O)/C=C/c2nc3ccccc3n2C(C)C)nc2ccccc21"
val = 84.8

[[record]]
compound = "CCCCCCCn1c(/C=C/C(=O)/C=C/c2nc3ccccc3n2CCCCCCC)nc2ccccc21"
val = 86.1

[[record]]
compound = "CCCn1c(/C=C/C(=O)/C=C/c2nc3ccccc3n2CCC)nc2ccccc21"
val = 79.9

[[record]]
compound = "Cn1cncc1/C=C/C(=O)/C=C/c1cncn1C"
val = 47.2

[[record]]
compound = "O=C(/C=C/c1cncs1)/C=C/c1cncs1"
val = 90.2

[[record]]
compound = "CC(C)=CCn1ccnc1/C=C/C(=O)/C=C/c1nccn1CC=C(C)C"
val = 90

[[record]]
compound = "O=C(/C=C/c1cc2ccccc2nc1Cl)/C=C/c1cc2ccccc2nc1Cl"
val = 6.22

[[record]]
compound = "O=C(/C=C/c1nc2ccccc2s1)/C=C/c1nc2ccccc2s1"
val = 46.8


---

- method-summary: Plasma concentration in C57BL/6 mouse at 1 mg/kg, po administered as single dose measured after 2 hrs by HPLC-MS/MS method
- Type: ADME, organism-based
endpoint-label: concentration at 2 h

[[record]]
smiles_structure = "Cc1nc(C(F)(F)F)c(/C=C/C(=O)/C=C/c2sc(C)nc2C(F)(F)F)s1"
val = "15.9 ng/mL"

[[record]]
smiles_structure = "CC(C)CCn1ccnc1/C=C/C(=O)/C=C/c1nccn1CCC(C)C"
val = "0.38 ng/mL"

